molecular target: Alpha-2D adrenergic receptor (Rattus norvegicus, UniProt P22909); construct: aliquots of the synaptic membrane fraction, the ligand ^3H-para-aminoclonidine and test drug; from tissue; host or cells: rat brain cortex synaptic membrane fraction (male Wistar rats); assay: Alpha-2D adrenergic receptor binding assay (3H-para-aminoclonidine, rat cortex synaptic membranes); details: ligand 3H-para-aminoclonidine, 25° C. 20 min, read-out: α2D Ki
Sequence (P22909 whole entry): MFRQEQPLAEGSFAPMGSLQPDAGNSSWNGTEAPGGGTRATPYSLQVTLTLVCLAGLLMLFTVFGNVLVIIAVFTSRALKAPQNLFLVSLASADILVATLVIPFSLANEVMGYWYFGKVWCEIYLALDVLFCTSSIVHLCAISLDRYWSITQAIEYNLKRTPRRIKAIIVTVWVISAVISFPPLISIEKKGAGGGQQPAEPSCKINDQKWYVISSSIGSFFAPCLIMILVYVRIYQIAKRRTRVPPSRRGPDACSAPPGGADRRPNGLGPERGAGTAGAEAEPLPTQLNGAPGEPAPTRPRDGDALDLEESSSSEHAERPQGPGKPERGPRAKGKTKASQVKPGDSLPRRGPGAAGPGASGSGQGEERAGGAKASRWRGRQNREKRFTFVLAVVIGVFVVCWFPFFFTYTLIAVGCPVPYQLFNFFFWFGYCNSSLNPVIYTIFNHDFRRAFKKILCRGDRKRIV
Documented Ki across a set of molecules

{"given-smiles": "c1nc(Cc2nc3c(s2)CCCC3)c[nH]1", "result": "110 nM"}

Pending molecule:
Memo: c1ccc2sc(-c3c[nH]cn3)cc2c1 , reported Ki: 18 nM
